Field: kon. Provide a value for each of the binders that follow.
measured_on: T1, human CD3ε/δ-Fc fusion protein (soluble recombinant CD3ε/δ complex) (human, UniProt P04234 22-105)
T1 construct: also called huCD3ε/δ; huCD3; not shown: hinge, CH2, CH3 of human IgG with tag
procedure_details: SPR Biacore, CD3εδ-Fc captured, Fab analyte
Give bare numbers, in M⁻¹ s⁻¹.

Worked cases, answers included:
binder	kon [M⁻¹ s⁻¹]
18F5-H10 Fab (Fab, V domains shown, also called BDX-18F5-H10) VH: EVQVVETGGSLVQPGKSLKLTCATSGFTFTNAWMHWVRRSPEKQLEWVAQIKDKSNNYATYYAESVKGRFTISRDDSKSSIYLQMNSLKEEDTAIYYCRYVHYRFAYALDAWGRGTSVSVSS VL: DVLMTQTPVSLSVSLGGQVSISCRSSQSLVHTNGNTYLSWYLQKPGQSPQLLIYKVSNRLSGISDRFSGSGSGTDFTLKISRVEPDDLGVYYCGQGTHYPFTFGAGTKLELKR	200000
12G3-E8 Fab (Fab, V domains shown) VH: EVRVVETGGSLVQPGKSLKLTCATSGFTFSLAWMHWVRQSPEKKLEWVAQIKDKANNYATYYAESVKGRFTISRDDSKRSVYLQMNRLKEEDTAIYYCRGVYYGFSMTPFDYWGQGVMVTVSS VL: DVAMTQTPVSLSVSLGGQVSISCRSSQSLVHNNGNTYLSWYLQKPGQSPQVLIYKVSNRFSGISDRFSGSGSGADFTLKISRVEPDDLGVYYCGQGTQYPFTFGAGTKLELK	110000

# next binder below
Exercise: Tell me measured kon for 1E6-C9 Fab (Fab, V domains shown, also called 1E6-B8; 1E6-B8/B9-C9-Fab) VH: EVQLVETGGSLVQPGKSLKLTCATSGFTFSYAWMHWVRQSPDKQLQWVAQIKAKSNNYATYYAESVEGRFTISRDDSKSSVYLQMNSLKEEDTAIYYCRGVYYGLLGLDAWGQGTSVTVSS VL: DVVMTQTPVSLSVRLGGQVSISCRSSQSLVHNNGNTYLSWFLQKPGQSPQLLIYKVSNRFSGISDRFSGSASGTDFTLKISRVEPDDLGVYYCGQGTHYPFTFGSGTKLEIK please.
Solution: 93000
